PROCEDURE_DETAILS: Oral bioavailability in Wistar rat plasma at 10 mg/kg measured up to 24 hrs by LC-MS/MS analysis
Type: ADME, organism-based
QUANTITY_KIND: bioavailability (%)
One number for each entry, in %.

stdin: Can you share its bioavailability? I mean this molecule: `COc1ccc(NC(=O)C(=O)N2CCN(c3ccccc3)CC2)cc1`
stdout: 17.5

In the following, a different molecule is considered.
stdin: Can you share its bioavailability? I mean this molecule: COc1ccc(NC(=O)C(=O)NCC(c2ccccc2)N2CCN(C)CC2)cc1 (configuration not stated)
stdout: 80.3

* * *

PROCEDURE_DETAILS: Tmax in CD-1 mouse plasma at 10 mg/kg, ip measured up to 8 hrs by LC-MS/MS analysis
Type: ADME, organism-based
QUANTITY_KIND: Tmax (min)
Answers are plain numbers, in min.

stdin: Can you share its Tmax? I mean this compound: COc1ccc2[nH]c(=O)c(C(c3nnnn3CCc3ccccc3)N3CCN(c4cccc(C(F)(F)F)c4)CC3)cc2c1 (stereo unspecified)
stdout: 30

* * *

PROCEDURE_DETAILS: Cmax in Wistar rat plasma at 5 mg/kg, iv measured up to 24 hrs by LC-MS/MS analysis
Type: ADME, organism-based
Parameters: dose 5 mg/kg, time < 24 hrs, route iv
Please provide measured Cmax for the entries that follow.
One number for each entry, in ng/g.

stdin: Can you share its Cmax? I mean this compound: `COc1ccc(NC(=O)C(=O)N2CCN(c3ccccc3)CC2)cc1`
stdout: 567

Further cases:
stdin: Can you share its Cmax? I mean this compound: COc1ccc(NC(=O)C(=O)NCC(c2ccccc2)N2CCN(C)CC2)cc1 (configuration not stated)
stdout: 307

* * *

PROCEDURE_DETAILS: Tmax in Wistar rat brain at 10 mg/kg, po measured up to 24 hrs by LC-MS/MS analysis
Format: ADME, organism-based
Please provide measured Tmax for the entries that follow.
Numbers only, in h.

stdin: Can you share its Tmax? I mean this compound: COc1ccc(NC(=O)C(=O)NCC(c2ccccc2)N2CCN(C)CC2)cc1 (configuration not stated)
stdout: 0.88

Further cases:
stdin: Can you share its Tmax? I mean this compound: `COc1ccc(NC(=O)C(=O)N2CCN(c3ccccc3)CC2)cc1`
stdout: 1.38

* * *

Please provide measured bioavailability for the entries that follow.
PROCEDURE_DETAILS: Bioavailability in Wistar rat plasma at 10 mg/kg, ip measured up to 24 hrs by LC-MS/MS analysis
Format: ADME, organism-based
Numbers only, in %.

stdin: Can you share its bioavailability? I mean this molecule: COc1ccc(NC(=O)C(=O)NCC(c2ccccc2)N2CCN(C)CC2)cc1 (configuration not stated)
stdout: 85

In the following, a different molecule is considered.
stdin: Can you share its bioavailability? I mean this molecule: `COc1ccc(NC(=O)C(=O)N2CCN(c3ccccc3)CC2)cc1`
stdout: 58.4

* * *

Please provide measured half-life for the entries that follow.
PROCEDURE_DETAILS: Half life in Wistar rat plasma at 10 mg/kg, ip measured up to 24 hrs by LC-MS/MS analysis
Format: ADME, organism-based

stdin: Can you share its half-life? I mean this compound: COc1ccc(NC(=O)C(=O)NCC(c2ccccc2)N2CCN(C)CC2)cc1 (configuration not stated)
stdout: 1.02 h

In the following, a different compound is considered.
stdin: Can you share its half-life? I mean this compound: `COc1ccc(NC(=O)C(=O)N2CCN(c3ccccc3)CC2)cc1`
stdout: 6.22 h

* * *

PROCEDURE_DETAILS: Half life in Wistar rat brain at 5 mg/kg, iv measured up to 24 hrs by LC-MS/MS analysis
Type: ADME, organism-based
QUANTITY_KIND: half-life (h)
Give bare numbers, in h.

stdin: Can you share its half-life? I mean this compound: COc1ccc(NC(=O)C(=O)NCC(c2ccccc2)N2CCN(C)CC2)cc1 (configuration not stated)
stdout: 1.03

In the following, a different compound is considered.
stdin: Can you share its half-life? I mean this compound: `COc1ccc(NC(=O)C(=O)N2CCN(c3ccccc3)CC2)cc1`
stdout: 1.52

* * *

PROCEDURE_DETAILS: Cmax in CD-1 mouse plasma at 10 mg/kg, ip measured up to 8 hrs by LC-MS/MS analysis
Type: ADME, organism-based
Design: dose 10 mg/kg, time < 8 hrs, route ip
QUANTITY_KIND: Cmax (ng/mL)
Numbers only, in ng/mL.

stdin: Can you share its Cmax? I mean this compound: COc1ccc2[nH]c(=O)c(C(c3nnnn3CCc3ccccc3)N3CCN(c4cccc(C(F)(F)F)c4)CC3)cc2c1 (stereo unspecified)
stdout: 717

* * *

PROCEDURE_DETAILS: Cmax in CD-1 mouse brain at 10 mg/kg, ip measured up to 8 hrs by LC-MS/MS analysis
Format: ADME, organism-based
Parameters: dose 10 mg/kg, time < 8 hrs, route ip
QUANTITY_KIND: Cmax
Entry format: amount then unit.

stdin: Can you share its Cmax? I mean this compound: COc1ccc2[nH]c(=O)c(C(c3nnnn3CCc3ccccc3)N3CCN(c4cccc(C(F)(F)F)c4)CC3)cc2c1 (stereo unspecified)
stdout: 30 ng/mL

Cited source for all entries: ChEMBL document CHEMBL5126643
